Target: T1, human CD8 on human pan T cells (human, UniProt P01732 22-235; P10966 22-210)
T1 construct: Native CD8 on the CD4-negative population of human pan T cells
T1 sequence (P01732 22-235, chain 1 of 2): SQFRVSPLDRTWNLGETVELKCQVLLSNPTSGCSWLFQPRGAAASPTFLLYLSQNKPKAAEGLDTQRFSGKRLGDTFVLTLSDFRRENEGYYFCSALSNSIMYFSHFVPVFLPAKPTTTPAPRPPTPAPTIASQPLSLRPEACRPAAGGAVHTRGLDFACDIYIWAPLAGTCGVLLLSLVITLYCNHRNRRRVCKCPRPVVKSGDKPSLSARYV
T1 sequence (P10966 22-210, chain 2 of 2): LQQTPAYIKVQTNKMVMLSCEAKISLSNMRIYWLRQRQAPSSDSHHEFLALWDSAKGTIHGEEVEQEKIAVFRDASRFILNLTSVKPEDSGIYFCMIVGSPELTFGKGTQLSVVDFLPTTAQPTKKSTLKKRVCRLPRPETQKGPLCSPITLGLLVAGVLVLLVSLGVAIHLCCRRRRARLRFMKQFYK
Assay: flow cytometry, 20 nM mAb on human pan T cells
ENDPOINT LABEL: Cell Binding to Human PanT Signal/Background (of CD4 negative population)
A bare number is all that is needed in reply.

CD8B273 (antibody, human IgG1, kappa, V domains shown, full-length human IgG1, kappa) VH: QVQLQQSGAELVKPGASVKLSCKASGYTFTEYTIHWVKQRSGQGLEWIGWFYPGTGSIKYNEKFKDKATLTADKSSHTVYMELSKLTSEDSAVYFCARHEDNHYYDGNSWFAYWGQGTLVTVSA VL: DIQMTQSPASLSASVGETVTITCRASGNIHNYLAWFQQKQGKSPQLLVYNAKTLADGVPSRFSGSGSGTQYSLKINSLQAEDFGSYYCQHFWSTPYTFGSGTKLEIKR
938

Next binder, please.
The recorded Cell Binding to Human PanT Signal/Background (of CD4 negative population) for entry CD8B312 (antibody, human IgG1, kappa, V domains shown, full-length human IgG1, kappa) VH: QVQLQQPGADLVKPGASVKLSCKASGYTFTSFWMHWVKQRPGQGLEWIGNVDPSDSQTHYNQKFKDKATLTVDKSSNTAYMQLSSLTSEDSAVYYCARSTYYRYDGPFTYWGQGTTVTVSS VL: DIVLTQSPATLSVTPGDSVSLSCRASQSINNNLHWYQQKSHESPRLLIKYTSQSISGIPSRFSGSGSGPDFTLSINSVETEDFGMYFCQQSNSWPLTFGGGTKLEIKR equals 1090
